- Species: Homo sapiens
- assayOverview: Selectivity for human A2B receptor over human A1 receptor
metricName: Ratio Ki

Consider the reported Ratio Ki for these compounds:
| mol | recordedMeasurement |
| --- | --- |
| CCCn1c(=O)[nH]c2nc(-c3cnn(Cc4cc(-c5ccc(Cl)cc5)on4)c3)[nH]c2c1=O | > 30 |
| CC(C)Cn1c(=O)[nH]c2nc(-c3cnn(Cc4noc(-c5ccc(C(F)(F)F)cc5)n4)c3)[nH]c2c1=O | > 400 |
| CC(C)Cn1c(=O)[nH]c2nc(-c3cnn(Cc4ccccc4)c3)[nH]c2c1=O | > 460 |
| CCCn1c(=O)[nH]c2nc(-c3cnn(Cc4cccc(C(F)(F)F)c4)c3)[nH]c2c1=O | > 750 |
| CCCn1c(=O)[nH]c2nc(-c3cnn(Cc4noc(-c5ccc(Cl)cc5)n4)c3)[nH]c2c1=O | > 850 |

## Task Recorded Ratio Ki of CC(C)Cn1c(=O)[nH]c2nc(-c3cnn(Cc4cc(-c5ccccc5)on4)c3)[nH]c2c1=O , please.
## Result > 500

## Task Recorded Ratio Ki of CC(C)Cn1c(=O)[nH]c2nc(-c3cnn(Cc4cccc(C(F)(F)F)c4)c3)[nH]c2c1=O , please.
## Result > 210

## Task Recorded Ratio Ki of O=c1[nH]c2nc(-c3cnn(Cc4cccc(C(F)(F)F)c4)c3)[nH]c2c(=O)n1CC1CC1 , please.
## Result > 2000

###

- Organism: Homo sapiens
- assayOverview: Selectivity for human A2B receptor over human A3 receptor
In this section, each of the compounds is paired with its reported Ratio Ki.

Consider the reported Ratio Ki for these compounds:
| mol | recordedMeasurement |
| --- | --- |
| CCCn1c(=O)[nH]c2nc(-c3cnn(Cc4noc(-c5ccc(Cl)cc5)n4)c3)[nH]c2c1=O | > 1280 |
| CCCCn1c(=O)[nH]c2nc(-c3cnn(Cc4cccc(C(F)(F)F)c4)c3)[nH]c2c1=O | > 300 |
| CC(C)Cn1c(=O)[nH]c2nc(-c3cnn(Cc4noc(-c5ccc(C(F)(F)F)cc5)n4)c3)[nH]c2c1=O | > 650 |

## Task Recorded Ratio Ki of O=c1[nH]c2nc(-c3cnn(Cc4cc(-c5ccc(C(F)(F)F)cc5)on4)c3)[nH]c2c(=O)n1CC1CC1 , please.
## Result > 600

###

Protein target, amino acids: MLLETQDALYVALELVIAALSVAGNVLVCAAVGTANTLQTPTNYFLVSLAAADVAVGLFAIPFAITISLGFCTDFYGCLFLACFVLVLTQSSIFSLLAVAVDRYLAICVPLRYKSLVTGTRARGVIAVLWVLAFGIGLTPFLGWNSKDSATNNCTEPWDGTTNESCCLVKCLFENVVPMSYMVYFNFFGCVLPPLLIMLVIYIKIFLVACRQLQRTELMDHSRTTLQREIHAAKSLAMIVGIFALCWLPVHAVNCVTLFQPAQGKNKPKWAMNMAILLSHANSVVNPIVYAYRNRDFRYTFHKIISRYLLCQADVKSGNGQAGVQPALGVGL
metricName: Ki (nM)
The reply should contain only the number, in nM.

## Task Recorded Ki of CCCn1c(=O)[nH]c2nc(-c3cnn(Cc4cccc(F)c4)c3)[nH]c2c1=O , please.
## Result 11

## Task Recorded Ki of CCn1c(=O)[nH]c2nc(-c3cnn(Cc4cccc(C(F)(F)F)c4)c3)[nH]c2c1=O , please.
## Result 6

## Task Recorded Ki of CC(C)Cn1c(=O)[nH]c2nc(-c3cnn(Cc4cc(-c5ccccc5)on4)c3)[nH]c2c1=O , please.
## Result 12

Entry source: ChEMBL document CHEMBL1141482
